Where do these numbers come from? They come from PubChem BioAssay AID2060882.

test system: 898857-211-R-J1-PDC complex spheroids, growth % test/control; assay: Anticancer human tumor 898857-211-R-J1-PDC patient-derived melanoma cell line growth inhibition [RAS]; conditions: second compound 0.3 µM; first compound 0.316 µM; stronger effect = lower value
Each record here notes measured viability, T/C.
metric-name: viability, T/C (%)

compound	value-reported
C[C@@H](NC(=O)c1ncnc(N)c1Cl)c1ncc(C(=O)Nc2cc(C(F)(F)F)c(Cl)cn2)s1 + CCn1c(-c2cccnc2C(C)OC)c2c3cc(ccc31)N1CCOC(CC(NC(=O)C(C(C)C)N(C)C(=O)C3(F)CCN(C(=O)C#CC(C)(C)N(C)C)CC3)C(=O)N3CCCC(N3)C(=O)OCC(C)(C)C2)C1	73.2
C=CC(=O)Nc1cc(Nc2nccc(-c3cn(C)c4ccccc34)n2)c(OC)cc1N(C)CCN(C)C + CCn1c(-c2cc(N3CCN(C)CC3)cnc2C(C)OC)c2c3cc(ccc31)-c1csc(n1)CC(NC(=O)C1CC1C)C(=O)N1CCCC(N1)C(=O)OCC(C)(C)C2	64.7
CC(C)NCC(C(=O)N1CCN(c2ncnc3c2C(C)CC3O)CC1)c1ccc(Cl)cc1 (centres undefined) + CCn1c(-c2cccnc2C(C)OC)c2c3cc(ccc31)N1CCOC(CC(NC(=O)C(C(C)C)N(C)C(=O)C3(F)CCN(C(=O)C#CC(C)(C)N(C)C)CC3)C(=O)N3CCCC(N3)C(=O)OCC(C)(C)C2)C1	69.5
O=C(c1ccc(F)c(F)c1Nc1ccc(I)cc1F)N1CC(O)([C@@H]2CCCCN2)C1 + CCn1c(-c2cccnc2C(C)OC)c2c3cc(ccc31)N1CCOC(CC(NC(=O)C(C(C)C)N(C)C(=O)C3(F)CCN(C(=O)C#CC(C)(C)N(C)C)CC3)C(=O)N3CCCC(N3)C(=O)OCC(C)(C)C2)C1	13.6

====

This section presents molecules with their documented IC50 values.
tested on: 898857-211-R-J1-PDC complex spheroids, growth % test/control; test: Anticancer human tumor 898857-211-R-J1-PDC cell line growth inhibition [RAS]; conditions: curve of first compound; second compound 0.00316 µM;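 note: spheroids exposed to compound for seven days before readout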
metric-name: IC50 (µM)

molecule	metric-name	qualifier	value-reported
NC1c2ccccc2OC12CCN(c1cnc3c(N4CCCc5ncccc54)n[nH]c3n1)CC2 (stereo not given) + C=CC(=O)N1CCN(c2nc(OCC3CCCN3C)nc3c(F)c(-c4nc(N)cc(C)c4C(F)(F)F)c(Cl)cc23)C(C)C1	IC50	>	10
CC1(C)CCC(Nc2ncc(C(F)(F)F)c(-c3c[nH]c4c(P(C)(C)=O)c(C#N)ccc34)n2)CN1 (stereo not given) + C=CC(=O)N1CCN(c2nc(OCC3CCCN3C)nc3c(F)c(-c4nc(N)cc(C)c4C(F)(F)F)c(Cl)cc23)C(C)C1	IC50	=	0.00536
CCN1CCN(Cc2ccc(Nc3ncc(F)c(-c4cc(F)c5nc(C)n(C(C)C)c5c4)n3)nc2)CC1 + C=CC(=O)N1CCN(c2nc(OCC3CCCN3C)nc3c(F)c(-c4nc(N)cc(C)c4C(F)(F)F)c(Cl)cc23)C(C)C1	IC50	=	0.366
CC(C)n1nc(-c2ccc3oc(N)nc3c2)c2c(N)ncnc21 + C=CC(=O)N1CCN(c2nc(OCC3CCCN3C)nc3c(F)c(-c4nc(N)cc(C)c4C(F)(F)F)c(Cl)cc23)C(C)C1	IC50	=	0.0288
CC(Nc1ccc2c(c1)OCCn1cc(N3C(=O)OCC3C(F)F)nc1-2)C(N)=O (stereo not given) + C=CC(=O)N1CCN(c2nc(OCC3CCCN3C)nc3c(F)c(-c4nc(N)cc(C)c4C(F)(F)F)c(Cl)cc23)C(C)C1	IC50	>	10

====

Recorded viability, T/C values for a group of compounds are listed next.
test system: 898857-211-R-J1-PDC complex spheroids, growth % test/control; experiment: Anticancer human tumor 898857-211-R-J1-PDC cell line growth inhibition [RAS]; details: second compound 0.3 µM; first compound 1 µM; stronger effect = lower value;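 note: spheroids exposed to compound for seven days before readout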;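 for viability, T/C: 100% = DMSO vehicle control wells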
metric-name: viability, T/C

compound	value-reported
O=C(c1ccc(F)c(F)c1Nc1ccc(I)cc1F)N1CC(O)([C@@H]2CCCCN2)C1 + CCn1c(-c2cc(N3CCN(C)CC3)cnc2C(C)OC)c2c3cc(ccc31)-c1csc(n1)CC(NC(=O)C1CC1C)C(=O)N1CCCC(N1)C(=O)OCC(C)(C)C2	1.17%
CC(Nc1ccc2c(c1)OCCn1cc(N3C(=O)OCC3C(F)F)nc1-2)C(N)=O (centres undefined) + CCn1c(-c2cccnc2C(C)OC)c2c3cc(ccc31)N1CCOC(CC(NC(=O)C(C(C)C)N(C)C(=O)C3(F)CCN(C(=O)C#CC(C)(C)N(C)C)CC3)C(=O)N3CCCC(N3)C(=O)OCC(C)(C)C2)C1	69.5%
C=CC(=O)Nc1cc(Nc2nccc(-c3cn(C)c4ccccc34)n2)c(OC)cc1N(C)CCN(C)C + CCn1c(-c2cc(N3CCN(C)CC3)cnc2C(C)OC)c2c3cc(ccc31)-c1csc(n1)CC(NC(=O)C1CC1C)C(=O)N1CCCC(N1)C(=O)OCC(C)(C)C2	36.2%
Nc1ccn(C2OC(CO)C(O)C2(F)F)c(=O)n1 (centres undefined) + CCn1c(-c2cc(N3CCN(C)CC3)cnc2C(C)OC)c2c3cc(ccc31)-c1csc(n1)CC(NC(=O)C1CC1C)C(=O)N1CCCC(N1)C(=O)OCC(C)(C)C2	4.96%

====

test system: 898857-211-R-J1-PDC complex spheroids, growth % test/control; test: Anticancer human tumor 898857-211-R-J1-PDC cell line growth inhibition [RAS]; details: second compound 0.316 µM; first compound 0.003 µM; stronger effect = lower value;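 note: spheroids exposed to compound for seven days before readout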;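 for viability, T/C: 100% = DMSO vehicle control wells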
metric-name: viability, T/C (%)

compound	metric-name	value-reported
CC1(C)CCC(Nc2ncc(C(F)(F)F)c(-c3c[nH]c4c(P(C)(C)=O)c(C#N)ccc34)n2)CN1 (centres undefined) + C=CC(=O)N1CCN(c2nc(OCC3CCCN3C)nc3c(F)c(-c4nc(N)cc(C)c4C(F)(F)F)c(Cl)cc23)C(C)C1	viability, T/C	70.5
CCc1c2c(nc3ccc(O)cc13)-c1cc3c(c(=O)n1C2)COC(=O)[C@]3(O)CC + C#Cc1c(F)ccc2cc(O)cc(-c3ncc4c(N5CC6CCC(C5)N6)nc(OCC56CCCN5CC(F)C6)nc4c3F)c12	viability, T/C	67.7
CCc1c2c(nc3ccc(O)cc13)-c1cc3c(c(=O)n1C2)COC(=O)[C@]3(O)CC + C=CC(=O)N1CCN(c2nc(OCC3CCCN3C)nc3c(F)c(-c4nc(N)cc(C)c4C(F)(F)F)c(Cl)cc23)C(C)C1	viability, T/C	73.3
CC1(C)CCC(Nc2ncc(C(F)(F)F)c(-c3c[nH]c4c(P(C)(C)=O)c(C#N)ccc34)n2)CN1 (centres undefined) + C#Cc1c(F)ccc2cc(O)cc(-c3ncc4c(N5CC6CCC(C5)N6)nc(OCC56CCCN5CC(F)C6)nc4c3F)c12	viability, T/C	63.7

====

system: 898857-211-R-J1-PDC complex spheroids, growth % test/control; assay: Anticancer human tumor 898857-211-R-J1-PDC cell line growth inhibition [RAS]; settings: curve of first compound; second compound 0.000949 µM;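 note: spheroids exposed to compound for seven days before readout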
Label T when IC50 < 4 nM; otherwise F.

compound	classification
CCC(CC)c1cc(NC2CCC(N)C2)n2nccc2n1 (stereo not drawn) + CCn1c(-c2cccnc2C(C)OC)c2c3cc(ccc31)N1CCOC(CC(NC(=O)C(C(C)C)N(C)C(=O)C3(F)CCN(C(=O)C#CC(C)(C)N(C)C)CC3)C(=O)N3CCCC(N3)C(=O)OCC(C)(C)C2)C1	F
O=C(c1ccc(F)c(F)c1Nc1ccc(I)cc1F)N1CC(O)([C@@H]2CCCCN2)C1 + CCn1c(-c2cccnc2C(C)OC)c2c3cc(ccc31)N1CCOC(CC(NC(=O)C(C(C)C)N(C)C(=O)C3(F)CCN(C(=O)C#CC(C)(C)N(C)C)CC3)C(=O)N3CCCC(N3)C(=O)OCC(C)(C)C2)C1	T
CCc1c2c(nc3ccc(O)cc13)-c1cc3c(c(=O)n1C2)COC(=O)[C@]3(O)CC + CCn1c(-c2cc(N3CCN(C)CC3)cnc2C(C)OC)c2c3cc(ccc31)-c1csc(n1)CC(NC(=O)C1CC1C)C(=O)N1CCCC(N1)C(=O)OCC(C)(C)C2	T
CCN1CCN(Cc2ccc(Nc3ncc(F)c(-c4cc(F)c5nc(C)n(C(C)C)c5c4)n3)nc2)CC1 + CCn1c(-c2cc(N3CCN(C)CC3)cnc2C(C)OC)c2c3cc(ccc31)-c1csc(n1)CC(NC(=O)C1CC1C)C(=O)N1CCCC(N1)C(=O)OCC(C)(C)C2	F
NC1c2ccccc2OC12CCN(c1cnc3c(N4CCCc5ncccc54)n[nH]c3n1)CC2 (stereo not drawn) + CCn1c(-c2cccnc2C(C)OC)c2c3cc(ccc31)N1CCOC(CC(NC(=O)C(C(C)C)N(C)C(=O)C3(F)CCN(C(=O)C#CC(C)(C)N(C)C)CC3)C(=O)N3CCCC(N3)C(=O)OCC(C)(C)C2)C1	F
C[C@@H](NC(=O)c1ncnc(N)c1Cl)c1ncc(C(=O)Nc2cc(C(F)(F)F)c(Cl)cn2)s1 + CCn1c(-c2cc(N3CCN(C)CC3)cnc2C(C)OC)c2c3cc(ccc31)-c1csc(n1)CC(NC(=O)C1CC1C)C(=O)N1CCCC(N1)C(=O)OCC(C)(C)C2	F
NC1c2ccccc2OC12CCN(c1cnc3c(N4CCCc5ncccc54)n[nH]c3n1)CC2 (stereo not drawn) + CCn1c(-c2cc(N3CCN(C)CC3)cnc2C(C)OC)c2c3cc(ccc31)-c1csc(n1)CC(NC(=O)C1CC1C)C(=O)N1CCCC(N1)C(=O)OCC(C)(C)C2	F
